Measurement target: Tyrosyl-tRNA synthetase, putative (Trypanosoma cruzi (strain CL Brener)) (UniProt Q4DSP6)
Sequence (Q4DSP6 as listed by the source): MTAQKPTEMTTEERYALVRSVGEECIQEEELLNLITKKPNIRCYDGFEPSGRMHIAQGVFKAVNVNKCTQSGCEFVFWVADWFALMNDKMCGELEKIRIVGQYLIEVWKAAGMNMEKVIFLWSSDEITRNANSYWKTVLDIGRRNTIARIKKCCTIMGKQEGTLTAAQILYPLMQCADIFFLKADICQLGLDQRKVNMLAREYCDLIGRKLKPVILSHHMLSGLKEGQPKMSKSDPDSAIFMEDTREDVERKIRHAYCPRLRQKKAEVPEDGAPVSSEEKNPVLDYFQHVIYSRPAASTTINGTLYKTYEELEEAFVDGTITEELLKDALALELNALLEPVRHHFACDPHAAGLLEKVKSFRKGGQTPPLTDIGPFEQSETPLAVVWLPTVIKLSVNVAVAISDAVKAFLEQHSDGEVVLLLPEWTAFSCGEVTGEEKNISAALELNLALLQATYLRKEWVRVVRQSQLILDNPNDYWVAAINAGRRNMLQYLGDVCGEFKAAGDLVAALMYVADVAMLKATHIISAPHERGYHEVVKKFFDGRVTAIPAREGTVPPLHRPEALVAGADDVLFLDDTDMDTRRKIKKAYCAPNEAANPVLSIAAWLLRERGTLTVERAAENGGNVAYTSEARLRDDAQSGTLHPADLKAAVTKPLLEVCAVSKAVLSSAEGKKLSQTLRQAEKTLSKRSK
Procedure details: Trypanosoma cruzi tyrosyl tRNA synthetase (TcYRS) _High Tyrosine SOP
Format: functional
Design: scale not given: in the data most compounds retested in dose-response had high values
Condition context: 30 µM
Rule: Percent Effect under 5% gives Not satisfied, otherwise Satisfied.

{"Compound": "CCN1CCN(C(=O)C(C)N2CCN(Cc3nccn3C)CC2)CC1 (stereo unspecified)", "Measurement target": "Tyrosyl-tRNA synthetase, putative (Trypanosoma cruzi (strain CL Brener)) (UniProt Q4DSP6)", "Answer label": "Not satisfied"}
{"Compound": "Cn1ccc(C(=O)NC2CCC23CCN(C(=O)c2ccncc2)CC3)c1 (stereo unspecified)", "Measurement target": "Tyrosyl-tRNA synthetase, putative (Trypanosoma cruzi (strain CL Brener)) (UniProt Q4DSP6)", "Answer label": "Satisfied"}
{"Compound": "Cc1ccc(CN2CCc3ncc(CNS(C)(=O)=O)n3CC2)o1", "Measurement target": "Tyrosyl-tRNA synthetase, putative (Trypanosoma cruzi (strain CL Brener)) (UniProt Q4DSP6)", "Answer label": "Satisfied"}
{"Compound": "CC(C)NS(=O)(=O)c1cc(C(=O)O)cc(-c2ccc(CN(C)C)cc2)c1", "Measurement target": "Tyrosyl-tRNA synthetase, putative (Trypanosoma cruzi (strain CL Brener)) (UniProt Q4DSP6)", "Answer label": "Not satisfied"}
{"Compound": "O=C(C1CC1)N1CCC(c2nc(O)c3c(n2)CCN(C2CCCC2)C3)C1 (stereo unspecified)", "Measurement target": "Tyrosyl-tRNA synthetase, putative (Trypanosoma cruzi (strain CL Brener)) (UniProt Q4DSP6)", "Answer label": "Not satisfied"}
{"Compound": "O=C(NCc1cnc2n1CCN(CC1CC1)CC2)C1CCC1", "Measurement target": "Tyrosyl-tRNA synthetase, putative (Trypanosoma cruzi (strain CL Brener)) (UniProt Q4DSP6)", "Answer label": "Satisfied"}
{"Compound": "CCC1(CC)Cc2ccccc2-c2nc(NCCO)[nH]c(=O)c21", "Measurement target": "Tyrosyl-tRNA synthetase, putative (Trypanosoma cruzi (strain CL Brener)) (UniProt Q4DSP6)", "Answer label": "Satisfied"}
{"Compound": "O=C(c1cnco1)N1CCCC(Cc2cccc3ncccc23)C1 (stereo unspecified)", "Measurement target": "Tyrosyl-tRNA synthetase, putative (Trypanosoma cruzi (strain CL Brener)) (UniProt Q4DSP6)", "Answer label": "Not satisfied"}
{"Compound": "NC(=O)CN1CCCN(C(=O)c2ccn(-c3ccccc3)n2)CC1", "Measurement target": "Tyrosyl-tRNA synthetase, putative (Trypanosoma cruzi (strain CL Brener)) (UniProt Q4DSP6)", "Answer label": "Satisfied"}
{"Compound": "Cc1cc(C)c(CNC(=O)N2CCN(c3ncccn3)CC2)c(=O)[nH]1", "Measurement target": "Tyrosyl-tRNA synthetase, putative (Trypanosoma cruzi (strain CL Brener)) (UniProt Q4DSP6)", "Answer label": "Not satisfied"}
{"Compound": "Cc1cnn(CCNCC(=O)NCCOc2ccccc2)c1", "Measurement target": "Tyrosyl-tRNA synthetase, putative (Trypanosoma cruzi (strain CL Brener)) (UniProt Q4DSP6)", "Answer label": "Not satisfied"}
